// values below are reported Post-emergence action against ALOMY in %
tested on: ALOMY; assay: Post-emergence herbicidal action against ALOMY; type: in vivo, Alopecurus myosuroides; details: 1280 g/ha, post-emergence at one-leaf stage, rated visually after about 3 weeks vs untreated controls
Field: numeric (%). Do not append units.

Answered cases to consult:
Prompt: Sample CCOC(=O)COc1nn(-c2ccccc2)c(-c2ccc(F)cc2)c1Br — what was its Post-emergence action against ALOMY in %?
Response: 90

Prompt: Another molecule to check: COC(=O)COc1nn(-c2ccccc2)c(-c2cccc(F)c2)c1Cl
Response: 80

Prompt: Another molecule to check: CCOC(=O)COc1nn(-c2ccc(F)cc2)c(-c2ccccc2)c1Br
Response: 80

Then there is this molecule:
Prompt: Sample COC(=O)COc1nn(-c2cccc(Cl)c2)c(-c2cccc(F)c2)c1C#N — what was its Post-emergence action against ALOMY in %?
Response: 80
